Source listed as the supplement of paper PMC12042874.

- Experiment: amyloid nucleation score (Sup35N fusion, yeast selection) (log enrichment); library NNK3; higher = more nucleation; inactive = no reads after selection;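 also: zero at mode of non-aggregating sequences after 7 days selection at 30°C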
Readout label: amyloid nucleation score

substance=HAKADL observed_measurement=inactive
substance=DTWMST observed_measurement=inactive
substance=AAVWRVVKRNLCHEIGERTA observed_measurement=inactive

----------
- Experiment: amyloid nucleation score (Sup35N fusion, yeast selection) (log enrichment); library NNK2; higher = more nucleation; inactive = no reads after selection
Classification field: 1 = amyloid nucleation score at or over 1; -1 = amyloid nucleation score under 1.

entry_sequence=CDRFYSSLVNSVGYCLLNAY class_assignment=1
entry_sequence=RKVVRLSHFLMCDCSRKPRR class_assignment=-1
entry_sequence=LPDIFLSVYKLLVYKSLLPA class_assignment=-1
entry_sequence=RCFNLWSNSVLFNCSVCSAE class_assignment=1
entry_sequence=TYGLVTRTGAV class_assignment=-1
entry_sequence=ETHVRMWAHFWQTTLRCHKS class_assignment=1
entry_sequence=FSIKPLGQKDIR class_assignment=1
entry_sequence=AYMNWCTLKMRR class_assignment=-1
entry_sequence=LFHFGNCSRIRGWGICVTSL class_assignment=-1
entry_sequence=FIERSSLEDNVSSALAISR class_assignment=-1
entry_sequence=MNIAVIHNMVQGSKAPDYHF class_assignment=1
entry_sequence=NITLYFKRSLDLFGEPMWTQ class_assignment=1
entry_sequence=NIVKGFRCLCVNLTDFRETR class_assignment=1

----------
- Experiment: amyloid nucleation score (Sup35N fusion, yeast selection) (log enrichment); library NNK2; higher = more nucleation; inactive = no reads after selection
Readout label: amyloid nucleation score

substance=CKSSARLIDYTS observed_measurement=-0.682
substance=RYHDLGI observed_measurement=-0.093
substance=SDIVNMGEVLVLGDSYWREG observed_measurement=-0.449
substance=VANEDDRYYTYGADWERLLL observed_measurement=0.844
substance=SSCVRLDELCAMMSMSWESQ observed_measurement=1.26
substance=RMNSYKLSKVYNT observed_measurement=-0.225
substance=QNTMALKHNICPEHSSMWNS observed_measurement=2.64
substance=YTVRKNNLVVQESMFLSKCW observed_measurement=0.855
substance=WHFSLTMFRSERVNVLTASD observed_measurement=1.04
substance=GVVNLTD observed_measurement=3.01
substance=RWMILSFSLAWVSMSFENNM observed_measurement=0.784

----------
- Experiment: amyloid nucleation score (Sup35N fusion, yeast selection) (log enrichment); library NNK3; higher = more nucleation; inactive = no reads after selection
Readout label: amyloid nucleation score

substance=LVSSMMIHVYFNEVLVFMIC observed_measurement=0.796
substance=IFVKDFLII observed_measurement=inactive
substance=FLVLVGIGIGMYLFVNHYVD observed_measurement=1.64
substance=YFIMSFSLQNFMGSPLNRLG observed_measurement=inactive
substance=KWNRLLVMRLAVIECRARVA observed_measurement=0.033
substance=TLDFGF observed_measurement=inactive
substance=VGYLCFLFQTDSFI observed_measurement=inactive
substance=LYGIFHRYTNFCSSVLCQVF observed_measurement=1.66
substance=DVANKIVSKGRS observed_measurement=inactive
substance=KKGGLLLLNKYN observed_measurement=inactive
substance=CYSGCEWSTYMLMGVLKVVS observed_measurement=inactive
substance=LYKGYYVLMLEWARDKIHSA observed_measurement=inactive
substance=FLNLIYNLGRLWFQQLTRFK observed_measurement=inactive
substance=RNSKWWLYLKSARSCYLGWW observed_measurement=inactive
substance=FWVNVCVFMGRVW observed_measurement=inactive
substance=TEPRMLGMCPAVVERMRVEG observed_measurement=inactive
substance=FSHFMSSTYYCC observed_measurement=1.73
substance=NSGCQMFL observed_measurement=inactive
substance=MSFSPQKVVAHFCYWSCMRS observed_measurement=inactive
substance=IFIIIGRRFIILKSLVRLHF observed_measurement=inactive
substance=SVESACFTSSWVNHFFTFSN observed_measurement=inactive
substance=QRAYVLVTLVFGA observed_measurement=inactive
substance=ILGKRC observed_measurement=inactive
substance=NRQVNCSFEGFSNRSKVYAY observed_measurement=inactive
substance=GSKDYQPSYIPWYNFACFKG observed_measurement=-0.594
substance=SFSWLTFPRGSDNFQDWHCI observed_measurement=0.56
substance=GIAGCKSRSCLLPYCNWVSV observed_measurement=inactive
substance=CNMDISVCYYRLLMWQRGFR observed_measurement=inactive
substance=IPIFWCYI observed_measurement=inactive
substance=VSSATTTMARRIHCFRVSRV observed_measurement=inactive
substance=SKLCVVTFLCIQTCQYDLCV observed_measurement=inactive
substance=NYAYPIPIRLLIEAWRMGTA observed_measurement=inactive
substance=NFGLFREVGLFIRLWIANAA observed_measurement=inactive
substance=MKLINRDFSL observed_measurement=inactive
substance=ATCRRFTLVQPSYLVPCEPY observed_measurement=inactive
substance=CRLSGEYFIDTDPEVFLALM observed_measurement=0.397
substance=RDYKLVRHHSHKDVLSCILW observed_measurement=inactive
substance=VRVMDLVGKALSTSSVANLA observed_measurement=inactive
substance=YETYKYLYGFVML observed_measurement=inactive
substance=MTLFDWFFLEIKAGWFRMVV observed_measurement=inactive
substance=MRTINIS observed_measurement=inactive
substance=NCNTVKYGMFGAWSNSAV observed_measurement=0.313
substance=ILLSSHSSECNNALIRRF observed_measurement=1.46
substance=RDRPKFII observed_measurement=inactive
substance=DTLYGDYQGQRYSVALMKCV observed_measurement=inactive
substance=SVYYTPCAFFRLIEGNLEGL observed_measurement=inactive
substance=VIRLLVIAFRDHLNEVMFHK observed_measurement=inactive
substance=VVASDNSTMVENWSFNGKMS observed_measurement=inactive
substance=KSRERFLCSKGMSPQQTHMY observed_measurement=inactive
substance=YYNTYCTVDIYYLNPCVNLQ observed_measurement=3.01
